- assay notes: Fraction unbound in Beagle dog liver microsomes at 1 uM
- Type: ADME, Canis lupus familiaris, Microsome
Measured fraction unbound at 1 µM by item

// solved cases for fraction unbound at 1 µM follow
COc1cc2nc(N3CCCN(C(=O)N4CCOCC4)CC3)nc(N)c2c(-c2ccccn2)c1OC | 0.939
COc1cc2nc(N3CCCN(C(=O)N4CCOCC4)CC3)cc(N)c2c(-c2ccc(F)cc2)c1OC | 0.602
COc1cc2nc(N3CCCN(C(=O)N4CCOCC4)CC3)nc(N)c2cc1-c1ccccn1 | 0.791

Exercise: Item COc1cc2nc(N3CCCN(C(=O)N4CCOCC4)CC3)cc(N)c2c(-c2ncco2)c1OC has what recorded fraction unbound at 1 µM?
Solution: 0.962

Exercise: Reported fraction unbound at 1 µM for COc1cc2nc(N3CCc4c(cccc4NS(C)(=O)=O)C3)nc(N)c2c(-c2ccccn2)c1OC : what is it?
Solution: 0.602

Exercise: # input compound: COc1cc2nc(N3CCCN(C(=O)N4CCOCC4)CC3)cc(N)c2c(-c2ccccc2)c1OC ; wanted: its fraction unbound at 1 µM
Solution: 0.59

Exercise: What measured fraction unbound at 1 µM goes with COc1cc2nc(N3CCc4ncccc4C3)nc(N)c2c(-c2ncccn2)c1OC ?
Solution: 1

====

- assay notes: Cmax in human at 0.02 mg/kg, po
- Type: ADME, organism-based
- Design: dose 0.02 mg/kg, route oral
- condition summary: in vivo
result type: Cmax (ng/mL)
Report the value in ng/mL with no unit label.

Exercise: # get_value(readout='Cmax', item= COc1cc2nc(N3CCc4c(cccc4NS(C)(=O)=O)C3)nc(N)c2c(-c2ccccn2)c1OC )
Solution: 7.5

====

- assay notes: Oral bioavailability in Sprague-Dawley rat at 1 mg/kg
- Assay type: ADME, organism-based
- condition summary: in vivo
result type: bioavailability (%)
Supply the numeric figure in %, leaving out any unit text.

Exercise: Sample COc1cc2nc(N3CCc4c(cccc4NS(C)(=O)=O)C3)nc(N)c2c(-c2ccccn2)c1OC — what was its bioavailability?
Solution: 42

====

Let's look at some compounds and their measured fraction unbound at 1 µM.
- assay notes: Fraction unbound in human liver microsomes at 1 uM
- Format: ADME, Microsome
Reply briefly: the number, and no unit.

Example compounds with recorded fraction unbound at 1 µM:
COc1cc2nc(N3CCCN(C(=O)N4CCOCC4)CC3)cc(N)c2c(-c2ncco2)c1OC | 0.745
COc1cc2nc(N3CCCN(C(=O)N4CCOCC4)CC3)cc(N)c2c(-c2ccccc2)c1OC | 0.414
COc1cc2nc(N3CCCN(C(=O)N4CCOCC4)CC3)cc(N)c2c(-c2ccc(F)cc2)c1OC | 0.331

Exercise: Item COc1cc2nc(N3CCCN(C(=O)N4CCOCC4)CC3)nc(N)c2cc1-c1ccccn1 has what recorded fraction unbound at 1 µM?
Solution: 0.637

Exercise: Can you share its fraction unbound at 1 µM? I mean this compound: COc1cc2nc(N3CCc4c(cccc4NS(C)(=O)=O)C3)nc(N)c2c(-c2ccccn2)c1OC [TAPRIZOSIN]
Solution: 0.564

Exercise: So what does the record say about fraction unbound at 1 µM for COc1cc2nc(N3CCCN(C(=O)N4CCOCC4)CC3)nc(N)c2c(-c2ccccn2)c1OC ?
Solution: 1

Exercise: Return reported fraction unbound at 1 µM; argument: COc1cc2nc(N3CCc4ncccc4C3)nc(N)c2c(-c2ncccn2)c1OC
Solution: 0.823

====

Catalogue of Stability readings, one per entry.
- assay notes: Metabolic stability in Sprague-Dawley rat bile assessed as drug remaining
- Format: ADME
The answer is to be given in %; state only the numeric part.

COc1cc2c(cc1OC)CN(c1nc(N3CCCN(C(=O)N4CC(O)C(O)C4)CC3)nc3cc(OC)c(OC)cc13)CC2 (centres undefined) | 90
COc1cc2nc(N3CCCN(C(=O)N4CC(O)C(O)C4)CC3)nc(Nc3ccccn3)c2cc1OC (centres undefined) | 100
COc1cc2c(cc1OC)CN(c1cc(N3CCCN(C(=O)N4CC(O)C(O)C4)CC3)nc3cc(OC)c(OC)cc13)CC2 (centres undefined) | 90

Moving on to the next molecule.
Exercise: Suppose we examine the molecule COc1cc2nc(N3CCCN(C(=O)N4CC(O)C(O)C4)CC3)nc(N3CC4C(CC(=O)OC(C)(C)C)C4C3)c2cc1OC (centres undefined) ; what Stability value has been reported?
Solution: 90

====

- assay notes: Elimination half life in Beagle dog at 0.5 mg/kg, iv
- Assay type: ADME, organism-based, Canis lupus familiaris
- Parameters: dose 0.5 mg/kg, route intravenous
- condition summary: in vivo
This section presents molecules with their documented half-life values.
Lab book: enter the figure in h, no units written.

Consider the worked cases shown below.
COc1cc2nc(N3CCCN(C(=O)N4CCOCC4)CC3)cc(N)c2c(-c2ccc(F)cc2)c1OC | 6.3
COc1cc2nc(N3CCc4ncccc4C3)nc(N)c2c(-c2ncccn2)c1OC | 1.5

Kindly review the next molecule as well.
Exercise: Given COc1cc2c(cc1OC)CN(c1nc(N3CCCN(C(=O)N4CC(O)C(O)C4)CC3)nc3cc(OC)c(OC)cc13)CC2 (configuration not stated) , state its recorded half-life.
Solution: 2.4

====

- assay notes: Drug uptake in Sprague-Dawley rat hepatocytes
- Assay type: ADME, cell-based, Hepatocyte
result type: Km (µM)
Answer format: numeric, µM implied, no suffix.

Exercise: // returns reported Km for input COc1cc2c(cc1OC)CN(c1nc(N3CCCN(C(=O)N4CC(O)C(O)C4)CC3)nc3cc(OC)c(OC)cc13)CC2 (stereo unspecified)
Solution: 6.5

====

- assay notes: Elimination half life in Sprague-Dawley rat at 1 mg/kg, po
- Assay type: ADME, organism-based
- Set-up: dose 1 mg/kg, route oral
- condition summary: in vivo
result type: half-life (h)
Expressed in h, but write only the number.

Exercise: # lookup: half-life of COc1cc2nc(N3CCc4c(cccc4NS(C)(=O)=O)C3)nc(N)c2c(-c2ccccn2)c1OC
Solution: 2.9

====

- assay notes: Protein binding in Beagle dog plasma at 1 ug/ml
- Type: ADME, cell-free, Canis lupus familiaris
- condition summary: read-out: PPB (converted)
result type: fraction unbound at 1 ug/ml
Output spec: single numeric token, no unit.

Use these answered entries as a reference point.
COc1cc2nc(N3CCc4c(cccc4NS(C)(=O)=O)C3)nc(N)c2c(-c2ccccn2)c1OC [TAPRIZOSIN] | 0.21
COc1cc2nc(N3CCCN(C(=O)N4CCOCC4)CC3)cc(N)c2c(-c2ccccc2)c1OC | 0.12
COc1cc2nc(N3CCCN(C(=O)N4CCOCC4)CC3)nc(N)c2cc1-c1ccccn1 | 0.22
COc1cc2c(cc1OC)CN(c1nc(N3CCCN(C(=O)N4CC(O)C(O)C4)CC3)nc3cc(OC)c(OC)cc13)CC2 (stereo unspecified) | 0.1
COc1cc2nc(N3CCCN(C(=O)N4CCOCC4)CC3)cc(N)c2c(-c2ncco2)c1OC | 0.22

Continue with the compound presented below.
Exercise: Fill in: fraction unbound at 1 ug/ml of COc1cc2nc(N3CCCN(C(=O)N4CCOCC4)CC3)cc(N)c2c(-c2ccc(F)cc2)c1OC is ___
Solution: 0.04

====

- Tested on: Liver microsomes
- assay notes: Unbound intrinsic clearance in human liver microsomes at 1 uM
- Assay type: ADME, Microsome
result type: CL (mL/min/kg)
Only the number, expressed in mL/min/kg, is required.

Sample answers from the record:
COc1cc2nc(N3CCCN(C(=O)N4CCOCC4)CC3)nc(N)c2cc1-c1ccccn1 | 96
COc1cc2nc(N3CCCN(C(=O)N4CCOCC4)CC3)cc(N)c2c(-c2ccccc2)c1OC | 82

Continue with the next compound.
Exercise: API: value(readout= CL, system= Liver microsomes, query= COc1cc2nc(N3CCCN(C(=O)N4CCOCC4)CC3)nc(N)c2c(-c2ccccn2)c1OC )
Solution: 34

====

- assay notes: Elimination half life in Beagle dog at 0.5 mg/kg, iv
- Type: ADME, organism-based, Canis lupus familiaris
- Set-up: dose 0.5 mg/kg, route intravenous
- condition summary: in vivo
Each entry below carries its reported half-life.

COc1cc2nc(N3CCCN(C(=O)N4CCOCC4)CC3)nc(N)c2c(-c2ccccn2)c1OC | 1.6 h
COc1cc2nc(N3CCCN(C(=O)N4CCOCC4)CC3)nc(N)c2cc1-c1ccccn1 | 2.3 h
COc1cc2nc(N3CCCN(C(=O)N4CCOCC4)CC3)cc(N)c2c(-c2ncco2)c1OC | 1.9 h

Exercise: Consider the molecule COc1cc2nc(N3CCCN(C(=O)N4CCOCC4)CC3)cc(N)c2c(-c2ccccc2)c1OC and give its measured half-life.
Solution: 3.6 h
